- Test system: UACC-62 melanoma
- test name: NCI-60 one-dose screen, 48 h
- condition label: 10 µM unless noted
This is part of a sample that, as a whole, favours compounds with a hit. Of some 83,000 tested, about 20% had one in any assay. Calls of active or inactive are those of the source. Rule for the calls: active = growth percent below 10; inactive = the rest.
Hello, when you answer, please use one of the following outcomes: t (active), f (inactive)

Solved cases (9 shown):
O=C(Cn1cc(CN2C(=O)c3ccccc3S2(=O)=O)nn1)Nc1cccc(Cl)c1 | f
O=C1/C(=C/c2ccc(Br)cc2)COc2ccc(O)c(O)c21 | t
COc1cc(/C=C\c2cc(/C=C\c3ccc(O)c(OC)c3)n(C(=O)CNc3ccc(Cl)cc3)n2)ccc1O | f
COc1cc(C2=NN(C(C)=O)C(c3ccc(N(C)C)cc3)C2)cc(OC)c1OC (stereo not given) | f
CC(=O)N(Cc1ccccc1)c1nc2ccc(O)c(CN(C)C)c2s1 | f
CC(=O)c1c(Nc2ccc(F)c(F)c2F)[nH]c2c(F)cc(F)cc2c1=O | t
COc1ccc(C2=C/C(=C\c3ccc(Cl)cc3)C(=O)N2/N=C/c2ccc(Cl)cc2)cc1 | f
COc1ccc(-c2ccc(-c3ccc(C(=N)N)cn3)s2)cc1 | f
O=C1CCCc2nc3sc4c(=O)n(-c5ccccc5Cl)nnc4c3cc21 | f

Would you kindly look at the next entry?
Fill in: this test's call for "CCCCCCCCNc1cc2c3c(c1)CCCN3CCC2" is ___ f

* * *

- Test system: MDA-MB-435 melanoma
- test name: NCI-60 one-dose screen, 48 h (100 = growth as untreated, 0 = no growth, -100 = all killed)
- condition label: 10 µM unless noted
- Procedure: Growth inhibition of the MDA-MB-435 human Melanoma tumor cell line is measured as a screen for anti-cancer activity. Cells are grown in 96 well plates and exposed to the test compound for 48 hours. Compounds are tested at a single concentration, which is 10^-5 M for most compounds. The reported endpoint is percent growth (GI% or GIPRCNT), where numbers from 0 - 100% represent growth inhibition, and numbers from -100% - 0 represent cell death. […]
Compounds without any hit were thinned out: in the full panel of roughly 83,000, 20% have a hit.
Listing: growth of selected molecules
Reply numerically in %, unit not repeated.

Solved cases below.
COC(=O)C1=C(C(=O)Nc2cccnc2)C2OC1(C(Cc1ccccc1)Oc1ccccc1)C1OC21 (stereo not given) | 77.8
COc1cc(-c2cc(-c3ccc(Nc4ncnc5cc(Cl)ccc45)cc3)nc(N3CCN(C)CC3)n2)cc(OC)c1OC | 102

Item "C/C(=N\Nc1nc(C)cs1)c1cc2ccccc2o1" was tested on MDA-MB-435 melanoma; the reported growth is 105

Field growth (system: MDA-MB-435 melanoma) for entry "N#Cc1nc(-c2ccc(F)cc2)oc1S(=O)(=O)N1CCN(c2ccc(F)cc2)CC1" = 86.8

Measured growth (MDA-MB-435 melanoma), entry "COc1ccc(C2=C/C(=C\c3ccc(Cl)cc3)C(=O)N2/N=C/c2ccc(Cl)cc2)cc1" : 104

* * *

- Tested on: OVCAR-5 ovarian
- test name: NCI-60 one-dose screen, 48 h
- condition label: 10 µM unless noted
About 83,000 compounds went through this panel and 20% of them were active in at least one assay; those are over-represented in the sample as a whole. The source made the active and inactive calls. Rule for the calls: active = growth percent below 10; inactive = the rest.
Just give me one of these, please: true (1) = active, false (0) = inactive

Solved entries:
C(/C=C/c1ccccc1)=Nc1ccc(CCc2ccc(N=C/C=C/c3ccccc3)cc2)cc1 | false (0)
O=C(Nc1cccc(NC(=O)C2CCCCC2)c1)c1ccccn1 | false (0)
O=C(N=Nc1c(O)[nH]c2ccccc12)Nc1ccc(Cl)cc1 | false (0)
COc1cccc(/C=C/C(=O)c2cc3c(N)c(C(=O)Nc4cccc(Cl)c4C)sc3nc2C)c1 | true (1)
COc1ccc(Cn2cc(C(=O)N=Nc3c(O)[nH]c4c(Cl)cccc34)nn2)cc1 | false (0)
COc1ccc(C2C3=C(COC3=O)N(CCO)c3cc4c(cc32)OCCO4)cc1OC (stereo not given) | false (0)
CCCCN1C(=O)/C(=c2\sc3n(c2=O)NC2C(N=3)N(CC)C(=O)N2CC)c2ccccc21 (stereo not given) | false (0)
CCCCSCC(=O)c1ccccc1 | false (0)

Recorded test outcome, item COc1cc2c(c(OC)c1OC)C(=O)CC(c1cccc(NC(=O)c3ccccc3Br)c1)O2 (stereo not given) false (0)

Dear all, I need the recorded test outcome for "Cn1c(=O)c2c(nc(NC3=NS(=O)(=O)c4ccccc43)n2Cc2ccccc2)n(C)c1=O" , thank you. false (0)
